Test system: B6C3F1 mice, B16 melanoma ip, median survival T/C
Assay: NCI In Vivo Anticancer Drug Screen. Data for tumor model B16 Melanoma (intraperitoneal) in B6C3F1 mice
Settings: endpoint: median survival time; dose: 75.0 mg/kg/injection; schedule: Q01DX009 (ip); vehicle: saline; higher = longer survival
Inconclusive results and toxic doses are left out.
Outcome measure: T/C

Consider the worked cases shown below.
- Molecule: "O=CC(O)C(O)C(O)C(O)CO (stereo not given)"
  Outcome measure: "T/C"
  Result: "95 % of control"
- Molecule: "NC(CCCNc1ccc(O)cc1)C(=O)O (stereo not given)"
  Outcome measure: "T/C"
  Result: "122 % of control"
- Molecule: "NC(CNc1ccc(O)cc1)C(=O)O (stereo not given)"
  Outcome measure: "T/C"
  Result: "111 % of control"

Q: Give me measured T/C, please, for this molecule: CC1(CO)C(O)CCC2(C)C1CCC1CC3CC12CCC3(O)CO (stereo not given)
Result: 113 % of control

Q: Give me measured T/C, please, for this molecule: NC(CCCNc1cccc(O)c1)C(=O)O (stereo not given)
Result: 104 % of control
